# Tested on: BT-549 breast
# Experiment Summary: NCI tumour cell line growth inhibition, 48 h
Measured Attribute: TGI (µM)
Give the value in µM but do not write µM after it.

Ask: Which TGI reading was recorded for the compound CCN1C(=O)NC(=O)C(C)(N2C(=O)c3c(F)c(F)c(F)c(F)c3C2=O)C1=O (stereo not given) ?
Reply: 13.3

Ask: Which TGI reading was recorded for the compound `O=C(NNc1ccnc2cc(Cl)ccc12)/C(=C\c1ccccc1Cl)NC(=O)c1ccccc1` ?
Reply: 87.8

Ask: Which TGI reading was recorded for the compound `CC(=O)O[C@H](C[C@H](C(C)C)N(C)C(=O)[C@@H](NC(=O)[C@H]1CCCCN1C)C(C)C)c1nc(C(=O)N[C@@H](Cc2ccccc2)C[C@H](C)C(=O)O)c(C(C)C)s1` ?
Reply: 0.0147

Ask: Which TGI reading was recorded for the compound `Nc1c(-c2nc3ccccc3o2)sc(=S)n1-c1ccc(Cl)cc1` ?
Reply: 76

Ask: Which TGI reading was recorded for the compound `COc1ccc2c(c1)c1c(n2CCN(C)C)-c2cccc(OC)c2CC1` ?
Reply: 40.5

Ask: Which TGI reading was recorded for the compound `Cc1cc2c(cc1C)[n+](=O)c(C#N)c(Cl)n2[O-]` ?
Reply: 38.1

Ask: Which TGI reading was recorded for the compound `O=C(CCCN1CCOCC1)Nc1ccc(Cn2nnc3c2C(=O)c2nnn(Cc4ccc(NC(=O)CCCN5CCOCC5)cc4)c2C3=O)cc1` ?
Reply: 18.4

Ask: Which TGI reading was recorded for the compound `CO/N=C(\C)c1cccc(Nc2cc(-c3ccccc3)nc3c(O)cccc23)c1` ?
Reply: 55.1

Ask: Which TGI reading was recorded for the compound `CC[C@H](Nc1nc(N)nc(C)c1C#N)c1nc2cccc(NCc3ccc(C(=O)NO)cc3)c2c(=O)n1-c1ccccc1` ?
Reply: 5.2

Ask: Which TGI reading was recorded for the compound `COc1cc(C=C2N=C(c3ccccc3)N(n3c(-c4ccccc4)nc4ccccc4c3=O)C2=O)cc(OC)c1OC` ?
Reply: 32.5

Ask: Which TGI reading was recorded for the compound `Cc1cccc(C(=O)/C=C/SC(=NC#N)SCc2ccccc2)c1` ?
Reply: 36.7

Ask: Which TGI reading was recorded for the compound `COc1ccc2c(c1)C(=O)c1c-2c(Nc2ccc(C(C)=O)cc2)nc2ccccc12` ?
Reply: 78.3

Ask: Which TGI reading was recorded for the compound `O=c1oc2ccccc2c(O)c1C1c2c(c3ccccc3oc2=O)Oc2c1c(=O)oc1ccccc21` ?
Reply: 67.5

Ask: Which TGI reading was recorded for the compound c1ccc(-c2cc(C3CO3)c3ccccc3n2)cc1 (stereo not given) ?
Reply: 43.6

Ask: Which TGI reading was recorded for the compound `C=CC[P+](c1ccccc1)(c1ccccc1)c1ccccc1` ?
Reply: 94.5

Ask: Which TGI reading was recorded for the compound `O=[N+]([O-])c1ccc2c(c1)Nc1c3ccccc3nc3cccc-2c13` ?
Reply: 29.8

Ask: Which TGI reading was recorded for the compound `Cc1ccc2nc(-c3ccc(-n4c(C)nc(=O)c(-c5ccc(F)cc5)c4C)cc3)sc2c1` ?
Reply: 29.9
